Measured EC50 (nM), bioassay (Ba/F3-huEPOR cell proliferation) by item
experimental target: T1, human erythropoietin receptor on Ba/F3-huEPOR cells (human, UniProt P19235 25-508)
T1 sequence (looked up): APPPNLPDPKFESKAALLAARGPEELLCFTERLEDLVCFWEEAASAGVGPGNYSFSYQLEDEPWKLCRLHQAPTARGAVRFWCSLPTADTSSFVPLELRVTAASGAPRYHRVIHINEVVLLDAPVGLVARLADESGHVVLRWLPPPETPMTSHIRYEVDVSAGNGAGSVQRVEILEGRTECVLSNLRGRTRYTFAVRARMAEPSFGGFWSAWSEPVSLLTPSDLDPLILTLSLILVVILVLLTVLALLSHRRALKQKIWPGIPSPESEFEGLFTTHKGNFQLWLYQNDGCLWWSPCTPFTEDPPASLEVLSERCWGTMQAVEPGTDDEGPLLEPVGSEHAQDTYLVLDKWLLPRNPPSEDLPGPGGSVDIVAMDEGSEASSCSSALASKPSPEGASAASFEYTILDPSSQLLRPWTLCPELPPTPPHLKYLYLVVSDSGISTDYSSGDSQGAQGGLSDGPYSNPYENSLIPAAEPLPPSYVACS
procedure details: cell-based or functional assay
Bridge positions count the residues as written; N and C are the ends. Square brackets hold non-standard residues; d marks the D form. Ends that are not written are not given here. 1Nal = N[C@@H](Cc1cccc2ccccc12)C(=O)O; PEG = not defined here
Lab book: enter the figure in nM, no units written.

Some binders with known EC50 (nM), bioassay (Ba/F3-huEPOR cell proliferation) results, for comparison:
{"columns": ["binder", "measured result"],
 "data": [
  ["GGTYSCHFGPLT[1Nal]VCRPQ (cysteine pairing not given here; also: homodimer: C-termini joined through a lysine linker)", 50],
  ["Peptide dimer of Example 2, Code No. 20528 (R1 = R2 = GGTYSCHFGPLTBVCRPQGG, n1 = 1, n2 = 0, lysine linker, free cysteine thiols) (cysteine pairing not given here; also: dimer: C-termini joined through lysine linker, one chain (R1) via a beta-alanine, the other (R2) directly) peptide 1: GGTYSCHFGPLT[1Nal]VCRPQGG peptide 2: GGTYSCHFGPLT[1Nal]VCRPQGG", 6],
  ["GGTYSCHFGPLT[1Nal]VCRPQGG (disulfide 6-15; not fully specified (C-terminus); also: dimer: each chain joined through βAla to lysine linker)", 0.3],
  ["{PEG}-GGTYSCHFGPLT[1Nal]VCRPQGG (not fully specified (C-terminus); cysteine pairing not given here; reading uncertain; also: homodimer: C-termini joined via beta-alanine to a lysine linker, PEG size not given here)", 0.4],
  ["Ac-GGTYSCHFGPLT[1Nal]VCRPQGGK (not fully specified; also: cysteine state not given here)", 2]
]}

// query So what does the record say about EC50 (nM), bioassay (Ba/F3-huEPOR cell proliferation) for GGTYSCHFGPLT[1Nal]VCRPQGG (disulfide 6-15; also: dimer: C-termini of both chains bound to lysine (amide) linker) ?
// result 0.5

// query Repeat with GTYSCHFGPLT[1Nal]VCRPQ (cysteine pairing not given here; also: dimer: C-termini of both chains bound to lysine linker)
// result 100
